Hello, the source for this data is patent US9090593B2, in case you need it.

System: KMS-Cell
Assay: KMS cell IC50 (Table 4)
Format: cell-based
Details: KMS cells
Counter-ions that a name gives are not always drawn.
Attribute Measured: IC50 (nM)

Here are 2 molecules together with their reported answers.
Molecule: COC(=O)c1ccc2[nH]nc(-c3ccnc(N4CCC(N)CC4)n3)c2c1
System Name: KMS-Cell
IC50 / nM: 1450
//
Molecule: CC(c1ccc2[nH]nc(-c3cncc(O[C@H]4CNCCC45CC5)n3)c2c1)C(F)(F)F (single isomer, unassigned) [Example 260]
System Name: KMS-Cell
IC50 / nM: 2190

[P] FC(F)(F)C1(c2ccc3[nH]nc(-c4cncc(O[C@H]5CNCCC56CC6)n4)c3c2)CC1
[Q] CC1(c2ccc3[nH]nc(-c4cncc(O[C@H]5CNCCC56CC6)n4)c3c2)CC1
[R] O=c1cc(-c2n[nH]c3ccc(-c4nccs4)cc23)nc(O[C@@H]2CNCC[C@H]2F)[nH]1 (racemic) [Example 289, trifluoroacetate]
[S] Nc1ccc(-c2ccc3[nH]nc(-c4cncc(O[C@H]5CNCCC56CC6)n4)c3c2)c(F)n1
Q: Kindly order the items shown according to IC50, from the highest value down. Give the labels in the order specified.
Ans: R, Q, P, S
(R: 3540 nM, Q: 2220 nM, P: 1490 nM, S: 346 nM)
